Where do these numbers come from? They come from patent US11753445B2.

- Test Protocol: Stability in mouse plasma, peptides 10 uM (Example 15)
- Type: in vitro ADME
- Test Parameters: pooled mouse plasma; mouse plasma 37° C.; peptide 10 uM; 15 min; read-out: % Remaining at Each Time Point: 15 min
Peptide text beside a SMILES is read from it.
Readout Label: remaining at 0.25 h, 10 uM (%)
Answers are plain numbers, in %.

The compound identified as CC[C@H](C)[C@H](NC(=O)[C@H](Cc1ccc(O)cc1)NC(=O)[C@H](CC(N)=O)NC(=O)[C@H](CCSC)NC(=O)[C@H](CCC(=O)O)NC(=O)[C@H](CCC(N)=O)NC(=O)[C@H](Cc1c[nH]c2ccccc12)NC(=O)[C@H](CCCNC(=N)N)NC(=O)[C@@H](C)N)C(=O)N[C@@H](Cc1ccccc1)C(=O)N[C@@H](Cc1ccc(O)cc1)C(=O)N1CCC[C@H]1C(=O)N[C@@H](CCCNC(=N)N)C(=O)O [compound 288] (HELM PEPTIDE1{[dA].R.W.Q.E.M.N.Y.I.F.Y.P.R}$$$$V2.0) registered its remaining at 0.25 h, 10 uM at 90

###

- Test Protocol: Stability in monkey plasma (Example 16)
- Type: in vitro ADME
- Test Parameters: Monkey plasma 37° C.; peptide 10 uM; 60 min; read-out: % Remaining at Each Time Point: 60 min
Give measured remaining at 1 h, 10 uM for each item. Keep answers brief.
One number for each entry, in %.

Here is how some substances turned out for remaining at 1 h, 10 uM.
H-MRWQEMGYIFYPRKLR-OH [compound 2]: 72.8
H-MRWQEMNYIFYPR-OH [compound 208]: 106

// moving on: another record for remaining at 1 h, 10 uM
The substance identified as H-RWQEMNYIFYPR-OH [compound 210] registered its remaining at 1 h, 10 uM at 105

###

- Test Protocol: Stability in human plasma (Example 16)
- Type: in vitro ADME
- Test Parameters: pooled human plasma; Human plasma 37° C.; peptide 10 uM; 120 min; read-out: % Remaining at Each Time Point: 120 min
Give measured remaining at 2 h, 10 uM for each item. Keep answers brief.

Here is how some substances turned out for remaining at 2 h, 10 uM.
H-MRWQEMNYIFYPR-OH [compound 208]: 86.6%
H-MRWQEMGYIFYPRKLR-OH [compound 2]: 44.7%

The substance identified as H-RWQEMNYIFYPR-OH [compound 210] registered its remaining at 2 h, 10 uM at 90.8%

###

Give measured Difference from Vehicle Control: Decrease from Baseline in Blood Glucose for each item. Keep answers brief.
- System: Diet Induced Obese (DIO) mice
- Test Protocol: Body weight, blood glucose and fat mass in Diet Induced Obese mice, 10 days (Example 6)
- Type: in vivo, Male C57BL/6 mice
- Test Parameters: male DIO mice; 10 days twice daily intraperitoneal 15 mg/kg; N = 8; mean
Numbers only, in mg/dL.

Here is how some substances turned out for Difference from Vehicle Control: Decrease from Baseline in Blood Glucose.
H-MRWQEMGYIFYPRALR-OH [compound 19]: -14.5
H-RWQEMGYIFYPRALR-OH [compound 215]: 16.4
H-MRWQEMGYIFYPRKLA-OH [compound 21]: -4.21
H-MRWQEMGYIFYARKLR-OH [compound 17]: -2.63
H-RWQEMGYIFYPRQLR-OH [compound 217]: -9.75

Required: Difference from Vehicle Control: Decrease from Baseline in Blood Glucose, one value per substance below.
1. H-MRWQEMNYIFYPR-OH [compound 208]
2. H-MRWQEMGYIFYPAKLR-OH [compound 18]
3. H-MRWQEEGYIFYPRKLR-OH [compound 172]
4. H-RWQEMNYIAEPR-OH [compound 251]
5. H-ERWQEAGYIAYPR-OH [compound 241]
6. H-RWQEMNYIFYPR-OH [compound 210]
7. H-MRWQEAGYIFYPRKLR-OH [compound 11]

Return:
1. -11.5
2. 1.52
3. -31.5
4. -34.3
5. -7.00
6. 8.25
7. -27.6

###

- Test Protocol: Stability in mouse plasma, peptides 10 uM (Example 15)
- Type: in vitro ADME
- Test Parameters: pooled mouse plasma; mouse plasma 37° C.; peptide 10 uM; 15 min; read-out: % Remaining at Each Time Point: 15 min
Readout Label: remaining at 0.25 h, 10 uM (%)
Give bare numbers, in %.

Here is how some substances turned out for remaining at 0.25 h, 10 uM.
H-MRWQEMNYIFYPR-OH [compound 208]: 77
H-MRWQEMGYIFYPRKLR-OH [compound 2]: 78.3
H-RWQEENYIAYPR-OH [compound 260]: 79.4
H-RWQEMNYIFYPR-OH [compound 210]: 85.7
H-WQEMNYIFYP-OH [compound 285]: 38.5
H-RWQEMGYIFYPRKL-OH [compound 268]: 76.1

Required: remaining at 0.25 h, 10 uM, one value per substance below.
1. H-RWQEMNYIAEPR-OH [compound 251]
2. H-MRWQEMNYIFYP-OH [compound 282]
3. H-QEMGYIFYPRKL-OH [compound 270]
4. H-ERWQEAGYIAYPR-OH [compound 241]
5. H-RWQEENYIFYPR-OH [compound 258]

Return:
70.6
34.9
13.8
98.8
63.2

###

- Test Protocol: Stability in mouse plasma, peptides 100 uM (Example 14)
- Format: in vitro ADME
- Test Parameters: pooled mouse plasma; mouse plasma 37° C.; peptide 100 uM; 30 min; read-out: % Remaining at Each Time Point: 30 min
Label key: yes (1) means remaining at 0.5 h, 100 uM under 40%; no (0) means remaining at 0.5 h, 100 uM of 40% or more.

Example results:
H-MRWQEMGYIAYPRKLR-OH [compound 15]: yes (1)
Ac-MRWQEMGYIFYPR-NH2 [compound 61]: no (0)
H-ARWQEMGYIFYPRKLR-OH [compound 6]: yes (1)
H-MRAQEMGYIFYPRKLR-OH [compound 8]: yes (1)
H-MRWQEMGYIFYPR-OH [compound 47]: no (0)

Enquiry: State whether 40% exceeds remaining at 0.5 h, 100 uM recorded for H-MRWQEMNYIFYPR-OH [compound 208] .
Return: no (0)

Enquiry: State whether 40% exceeds remaining at 0.5 h, 100 uM recorded for H-RWQEMNYIFYPR-OH [compound 210] .
Return: no (0)

Enquiry: State whether 40% exceeds remaining at 0.5 h, 100 uM recorded for H-MRWQEMGYIFYPRK(Ac)LR-OH [compound 69] .
Return: yes (1)

###

- Test Protocol: Stability in mouse plasma, peptides 10 uM (Example 15)
- Type: in vitro ADME
- Test Parameters: pooled mouse plasma; mouse plasma 37° C.; peptide 10 uM; 60 min; read-out: % Remaining at Each Time Point: 60 min
Label key: TRUE means remaining at 1 h, 10 uM under 40%; FALSE means remaining at 1 h, 10 uM of 40% or more.

Example results:
H-RWQEEQYIAEPR-OH [compound 266]: TRUE
H-RWQEEQYIAYPR-OH [compound 265]: FALSE
Ac-MRWQEMNYIFYPR-OH [compound 286]: FALSE
H-RWQEENYIFEPR-OH [compound 259]: FALSE

Enquiry: State whether 40% exceeds remaining at 1 h, 10 uM recorded for H-RWQEENYIAYPR-OH [compound 260] .
Return: FALSE

###

- Test Protocol: Stability in mouse plasma, peptides 100 uM (Example 14)
- Format: in vitro ADME
- Test Parameters: pooled mouse plasma; mouse plasma 37° C.; peptide 100 uM; 15 min; read-out: % Remaining at Each Time Point: 15 min
Label key: Criterion met means remaining at 0.25 h, 100 uM under 40%; Criterion not met means remaining at 0.25 h, 100 uM of 40% or more.

H-ARWQEMGYIFYPRKLR-OH [compound 6]: Criterion met

Enquiry: State whether 40% exceeds remaining at 0.25 h, 100 uM recorded for H-MRWQEMGYIFYPRKLA-OH [compound 21] .
Return: Criterion met

Enquiry: State whether 40% exceeds remaining at 0.25 h, 100 uM recorded for H-RWQEMGYIFYPRQLR-OH [compound 217] .
Return: Criterion not met

Enquiry: State whether 40% exceeds remaining at 0.25 h, 100 uM recorded for H-MRWQEAGYIFYPRKLR-OH [compound 11] .
Return: Criterion met

Enquiry: State whether 40% exceeds remaining at 0.25 h, 100 uM recorded for H-RWQEMGYIFYPRALR-OH [compound 215] .
Return: Criterion not met

Enquiry: State whether 40% exceeds remaining at 0.25 h, 100 uM recorded for H-MRWQEMNYIFYPR-OH [compound 208] .
Return: Criterion not met

Enquiry: State whether 40% exceeds remaining at 0.25 h, 100 uM recorded for H-MRWQEMGYIFYPRALR-OH [compound 19] .
Return: Criterion met

Enquiry: State whether 40% exceeds remaining at 0.25 h, 100 uM recorded for Ac-MRWQEMGYIFYPR-NH2 [compound 61] .
Return: Criterion not met

Enquiry: State whether 40% exceeds remaining at 0.25 h, 100 uM recorded for H-MRWQEMGYIFYPRK(Ac)LR-OH [compound 69] .
Return: Criterion met
